Test system: Vibrio alginolyticus
Experiment: Antibacterial activity against Vibrio alginolyticus 13214 measured after 16 hrs by broth microdilution method
Format: functional
PARAMETER: MIC (µg/mL)

[A] CC(=O)c1c(O)cc2c3c(cccc13)C=C([C@H](O)[C@@H](C)O)O2
[B] CC(=O)c1c(O)cc2c3c(cccc13)C=C(C=O)O2
Exercise: # compare MIC for A vs B ; return the one with the smaller value // output: label of the selected item
Key: B
(B: 32 µg/mL, A: 64 µg/mL)

---

System: Vibrio alginolyticus
Assay: Antibacterial activity against Vibrio alginolyticus 13214 measured after 16 hrs by broth microdilution method
Format: functional
PARAMETER: MIC (µg/mL)

SUBSTANCE_SMILES: COc1cc(Cc2cnc(N)nc2N)cc(OC)c1OC
ENDPOINT_UNIT: µg/mL
RECORDED_VALUE: 0.125

[I] CC(=O)c1c(O)cc2c3c(cccc13)C=C(C)O2
[II] CC(=O)CC1=Cc2cccc3c(C(C)=O)c(O)cc(c23)O1
Exercise: # compare MIC for I vs II ; return the one with the smaller value // output: label of the selected item
Key: II

---

System: Vibrio alginolyticus
Assay: Antibacterial activity against Vibrio alginolyticus 13214 measured after 16 hrs by broth microdilution method
Assay type: functional
PARAMETER: MIC

Record excerpt, results attached:
SUBSTANCE_SMILES: CC(=O)c1c(O)cc2c3c(cccc13)C=C([C@H](O)[C@H](C)O)O2
MIC: > 64 µg/mL
//
SUBSTANCE_SMILES: CC(=O)c1c(O)cc2c3c(cccc13)C=C([C@@H](O)[C@H](C)O)O2
MIC: > 64 µg/mL
//
SUBSTANCE_SMILES: CC(=O)c1c(O)cc2c3c(cccc13)C=C(CO)O2
MIC: > 64 µg/mL

Exercise: MIC for CC(=O)c1c(O)cc2c3c(cccc13)C=C([C@@H](O)[C@@H](C)O)O2 ?
Key: > 64 µg/mL
